Read-out: C-C motif chemokine 2 (Homo sapiens)
Assay: BSK_KF3CT_MCP1: BioMAP Diversity Plus: KF3CT Assay for Monocyte Chemoattractant Protein 1 (MCP1/CCL2) Biomarker Activity (AID 2283073)
Settings: primary human keratinocytes with fibroblasts; actives raise or lower the signal
The source made the active and inactive calls. The calls were made as follows: active = hit-call score of the fitted dose curve at least 0.9, where 1 is the maximum; inactive = score below 0.9.
Labels: Y = active, N = inactive

> print(dat)
                                    compound  label.class
 1  CC(Cc1ccc(OCC(=O)O)cc1)NCC(O)c1csc(C(F)(F)F)n1 (stereo not given)            N
 2                           CCN(CC)c1ccccc1            N
 3                OCC1CO1 (stereo not given)            N
 4                             Cc1ccc(O)cc1C            N
 5                              COP(N)(=S)OC            N
 6            Cc1ccc2c(c1N)C(=O)c1ccccc1C2=O            N
 7  CCCCC(CC)COC(=O)c1c(Br)c(Br)c(Br)c(Br)c1C(=O)OCC(CC)CCCC (stereo not given)            N
 8                            CCCCN(CCCC)N=O            N
 9                CCNc1nc(Cl)nc(NC(C)(C)C)n1            N
10  Cc1c([N+](=O)[O-])cc2c(c1[N+](=O)[O-])C(C)(C)CC2(C)C            N
11                           CCOS(=O)(=O)OCC            N
12                     NC(=O)C(F)(F)C(F)(F)F            N
13                        CC(C)(C)OOC(C)(C)C            N
14           CCOP(=S)(OCC)SCn1nnc2ccccc2c1=O            N
15  CCC1(c2ccccc2)C(=O)N=C(O)NC1=O (stereo not given)            N
16  CCCN(CCC)c1c([N+](=O)[O-])cc(C(C)C)cc1[N+](=O)[O-]            N
17              CCOP(=S)(OCC)SCSc1ccc(Cl)cc1            N
18                             O=C(O)C(Cl)Cl            N
19                              CN(C)C(=O)Cl            N
20                        CCOP(=S)(OCC)SCSCC            N
21                        CCCCCCCc1ccc(O)cc1            Y
22                              COP(=O)(O)OC            N
23  OCC(F)(F)OC(F)(F)C(F)(F)OC(F)(F)C(F)(F)OC(F)(F)CO            N
24  Nc1cc2c3c(c1)C(c1ccccc1)=N[C@@H](NC(=O)c1cccnc1)C(=O)N3CC2            N
25                                  COCCOCCO            Y
26                       CC(C)(C)c1ccc(O)cc1            N
27                            CCOP(=S)(S)OCC            N
28                     COP(=O)(CCC(=O)NCO)OC            N
29  CCCCC(CC)COP(=O)(Oc1ccccc1)Oc1ccccc1 (stereo not given)            N
30                                c1nc[nH]n1            N
31     C=CC(=O)OCC(CC)(COC(=O)C=C)COC(=O)C=C            Y
32           CCCCOCCOP(=O)(OCCOCCCC)OCCOCCCC            N
33  O=P(OCC(Br)CBr)(OCC(Br)CBr)OCC(Br)CBr (stereo not given)            N
34                           O=c1ssc(Cl)c1Cl            Y
35                           Nc1ccc2ccccc2c1            N
36                 CC(C)Nc1ccc(Nc2ccccc2)cc1            Y
37                          CC(Cl)(Cl)C(=O)O            N
38              O=[N+]([O-])c1ccc(Cl)c(Cl)c1            N
39  N#Cc1c(-c2ccc(Cl)cc2)[nH]c(C(F)(F)F)c1Br            Y
40        OCC(F)(F)OC(F)(F)C(F)(F)OC(F)(F)CO            N
41                           ClC(Cl)c1ccccc1            N
42  O=S1(=O)OCC2C(CO1)C1(Cl)C(Cl)=C(Cl)C2(Cl)C1(Cl)Cl (stereo not given)            N
43                       ClC(Cl)(Cl)c1ccccc1            N
44                      CCC(C)(C)c1ccc(O)cc1            N
45  O=S(=O)(F)C(F)(F)C(F)(F)C(F)(F)C(F)(F)C(F)(F)C(F)(F)C(F)(F)C(F)(F)F            N
46                             Cc1ccc(N)cc1N            N
47  COC(=O)C(F)(F)C(F)(F)OC(F)(C(F)(F)F)C(F)(F)OC(F)=C(F)F (stereo not given)            N
48                            [N-]=[N+]=[N-]            N
49                  Cc1ccc([N+](=O)[O-])cc1C            N
50                             CSC(C)(C)C=NO            N
51                O=C(O)C(F)(F)C(F)(F)C(=O)O            N
52  O=P1(N(CCCl)CCCl)NCCCO1 (stereo not given)            N
53           O=C(O)C=CC(F)(C(F)(F)F)C(F)(F)F            N
54        O=P(Oc1ccccc1)(Oc1ccccc1)Oc1ccccc1            N
55  CCOP(=S)(Oc1ccc([N+](=O)[O-])cc1)c1ccccc1 (stereo not given)            N
56                    C=CC(=O)OCC(F)(F)C(F)F            N
57                  CCOC(=O)c1ccccc1C(=O)OCC            N
58         ClC(Cl)=C(c1ccc(Cl)cc1)c1ccccc1Cl            Y
59                N#Cc1cc([N+](=O)[O-])ccc1N            N
60                 Nc1ccc([N+](=O)[O-])cc1Cl            N
